So I've got AC50 readings for Thromboxane A2 receptor (Homo sapiens), take a look.

Example results:
compound	test_readout	reported_value
C#C[C@]1(O)CC[C@H]2[C@@H]3CCC4=Cc5oncc5C[C@]4(C)[C@H]3CC[C@@]21C [DANAZOL]	AC50	> 10 µM
C#C[C@]1(O)CC[C@H]2[C@@H]3CCc4cc(OC5CCCC5)ccc4[C@H]3CC[C@@]21C [QUINESTROL]	AC50	> 10 µM
CCCCN1C[C@H](O)[C@@H](O)[C@H](O)[C@H]1CO	AC50	> 30 µM
Cc1cn([C@H]2C[C@H](N=[N+]=[N-])[C@@H](CO)O2)c(=O)[nH]c1=O [ZIDOVUDINE]	AC50	> 30 µM
O=C(O[C@H]1C[C@H]2CC[C@@H](C1)[N+]21CCCC1)C(O)(c1ccccc1)c1ccccc1 [TROSPIUM]	AC50	> 30 µM
CCOC(=O)OC(C)OC1=C(C(=O)Nc2ccccn2)N(C)S(=O)(=O)c2ccccc21 (stereo not given) [AMPIROXICAM]	AC50	> 30 µM
CC(CC(c1ccccc1)c1ccccc1)NC(C)(C)C (stereo not given) [TERODILINE]	AC50	> 30 µM
C=CCC1(CC(C)C)C(=O)NC(=O)NC1=O [BUTALBITAL]	AC50	> 10 µM
CO[C@@H]1[C@@H](O[C@@H]2O[C@H](C)[C@@H](O[C@H]3C[C@@](C)(O)[C@@H](OC(=O)CC(C)C)[C@H](C)O3)[C@H](N(C)C)[C@H]2O)[C@@H](CC=O)C[C@@H](C)[C@@H](O)/C=C/C=C/C[C@@H](C)OC(=O)C[C@H]1OC(C)=O [JOSAMYCIN]	AC50	> 10 µM
CCCCCCOc1ccccc1C(N)=O [EXALAMIDE]	AC50	> 30 µM

Field: AC50 (Thromboxane A2 receptor (Homo sapiens)). Entry: C[C@H]1COc2c(C3(N)CC3)c(F)cc3c(=O)c(C(=O)O)cn1c23 [PAZUFLOXACIN]
> 10 µM

Field: AC50 (Thromboxane A2 receptor (Homo sapiens)). Entry: O=C1C(O)=C([C@H]2CC[C@H](c3ccc(Cl)cc3)CC2)C(=O)c2ccccc21 [ATOVAQUONE]
> 30 µM

Field: AC50 (Thromboxane A2 receptor (Homo sapiens)). Entry: CO[C@H]1C[C@@H]2CC[C@@H](C)[C@@](O)(O2)C(=O)C(=O)N2CCCC[C@H]2C(=O)O[C@H]([C@H](C)C[C@@H]2CC[C@@H](O)[C@H](OC)C2)CC(=O)[C@H](C)/C=C(\C)[C@@H](O)[C@@H](OC)C(=O)[C@H](C)C[C@H](C)/C=C/C=C/C=C/1C [SIROLIMUS]
> 30 µM

Field: AC50 (Thromboxane A2 receptor (Homo sapiens)). Entry: O=[N+]([O-])O[C@@H]1CO[C@H]2[C@@H]1OC[C@@H]2O [ISOSORBIDE MONONITRATE]
> 30 µM

Field: AC50 (Thromboxane A2 receptor (Homo sapiens)). Entry: O=C(O)CCCCCCCC(=O)O [AZELAIC ACID]
> 10 µM

----------
So I've got AC50 readings for Growth hormone secretagogue receptor type 1 (Homo sapiens), take a look.

> print(dat)
                                   compound  reported.value
1  CC(=O)O[C@H]1CC[C@@]2(C)C(=CC[C@@H]3[C@@H]2CC[C@]2(C)C(c4cccnc4)=CC[C@@H]32)C1 [ABIRATERONE ACETATE]         > 30 µM
2  N[C@@H]1[C@H]2CN(c3nc4c(cc3F)c(=O)c(C(=O)O)cn4-c3ccc(F)cc3F)C[C@@H]12         > 30 µM
3           C[C@](N)(Cc1ccc(O)c(O)c1)C(=O)O         > 10 µM
4  CC(Oc1c(Cl)cccc1Cl)C1=NCCN1 (stereo not drawn)         > 30 µM
5  CCC(C(=O)O)c1ccc(N2Cc3ccccc3C2=O)cc1 (stereo not drawn)         > 30 µM

Field: AC50 (Growth hormone secretagogue receptor type 1 (Homo sapiens)). Entry: `CN1CCC(=C2c3ccccc3CCc3sccc32)CC1`
> 30 µM

Field: AC50 (Growth hormone secretagogue receptor type 1 (Homo sapiens)). Entry: COc1cc(NC(C)CCCN)c2ncccc2c1 (stereo not drawn)
> 30 µM

Field: AC50 (Growth hormone secretagogue receptor type 1 (Homo sapiens)). Entry: CCCC(=O)O[C@]1(C(=O)CO)CC[C@H]2[C@@H]3CCC4=CC(=O)CC[C@]4(C)[C@H]3[C@@H](O)C[C@@]21C [HYDROCORTISONE BUTYRATE]
> 10 µM
